Below, each entry is listed with its recorded solubility.
Assay: Solubility
Details: water/CH3CN (1:1), aqueous with cosolvent or surfactant or cyclodextrin, Solubility, in water/CH3CN (1:1)

According to the records, this compound CCCOC(=O)NC(N)=NC(=O)Cc1c(Cl)cccc1Cl.Cl displays solubility of > 1000 µg/mL

According to the records, this compound CC(C)COC(=O)NC(N)=NC(=O)Cc1c(Cl)cccc1Cl.Cl displays solubility of > 1000 µg/mL

According to the records, this compound NC(=NC(=O)Cc1c(Cl)cccc1Cl)NC(=O)OCCO displays solubility of > 10000 µg/mL

According to the records, this compound NC(=NC(=O)Cc1c(Cl)cccc1Cl)NC(=O)OCCCO displays solubility of > 10000 µg/mL

According to the records, this compound CC(C)(C)COC(=O)NC(N)=NC(=O)Cc1c(Cl)cccc1Cl.Cl displays solubility of > 1000 µg/mL

According to the records, this compound Cl.NC(=NC(=O)Cc1c(Cl)cccc1Cl)NC(=O)OCC1CC1 displays solubility of > 5000 µg/mL

According to the records, this compound CCCCOC(=O)NC(N)=NC(=O)Cc1c(Cl)cccc1Cl.Cl displays solubility of > 1000 µg/mL

----------
Experiment: Pharmacokinetics of guanfacine and prodrug in rat hepatic portal and tail veins after oral prodrug
Assay type: in vivo
Conditions: hepatic portal vein plasma, 1 mg/kg, read-out: Hepatic portal vein Prodrug Cmax
outcome_measure: Cmax (ng/mL)
Just the number please, in ng/mL, no unit attached.

According to the records, this compound CCOC(=O)NC(N)=NC(=O)Cc1c(Cl)cccc1Cl.Cl [Compound 3] displays Cmax of 149

----------
Assay: Solubility
Settings: 3.0 mL CH3CN/3.0 mL H2O, aqueous with cosolvent or surfactant or cyclodextrin, Solubility, in 3.0 mL CH3CN/3.0 mL H2O
outcome_measure: solubility

According to the records, this compound CC(C)OC(=O)NC(N)=NC(=O)Cc1c(Cl)cccc1Cl.Cl [Compound 5] displays solubility of > 833 µg/mL

----------
Test: Solubility
Details: DMSO, organic solvent or mixture
Where a name gives a salt, the structure may show the parent alone.
outcome_measure: solubility

• Cl.N=C(NC(=O)Cc1c(Cl)cccc1Cl)NC(=O)Oc1cccc(C(=O)O)c1 = > 20 mg/mL

According to the records, this compound N=C(NC(=O)Cc1c(Cl)cccc1Cl)NC(=O)Oc1ccc(CC(=O)O)cc1 [Compound 25, Hydrochloride] displays solubility of > 23 mg/mL

----------
Assay: physchem
Settings: water
outcome_measure: solubility

According to the records, this molecule CCC(C)OC(=O)NC(N)=NC(=O)Cc1c(Cl)cccc1Cl.Cl (stereo not shown) [Compound 7] displays solubility of < 1000 µg/mL

----------
Assay: Solubility
Conditions: water, Solubility, in water
Below, each entry is listed with its recorded solubility.

Answered examples (2):
• CCCOC(=O)NC(N)=NC(=O)Cc1c(Cl)cccc1Cl.Cl = < 1000 µg/mL
• CCOC(=O)NC(N)=NC(=O)Cc1c(Cl)cccc1Cl.Cl = < 1000 µg/mL

According to the records, this molecule CC(C)[C@@H]1CC[C@@H](C)C[C@H]1OC(=O)NC(N)=NC(=O)Cc1c(Cl)cccc1Cl.Cl displays solubility of < 1000 µg/mL

----------
Assay: Solubility
Conditions: CH3CN, organic solvent or mixture, Solubility, in CH3CN
Counter-ions that a name gives are not always drawn.
outcome_measure: solubility

According to the records, this molecule NC(=NC(=O)Cc1c(Cl)cccc1Cl)NC(=O)OCc1ccccc1 [Compound 10, Hydrochloride] displays solubility of > 5 mg/mL
